Origin of measurements: patent US20240277713A1

Method summary: Toxicokinetics in pregnant Sprague-Dawley rats (Example 1)
Assay type: in vivo, rat
Recorded conditions: female, Sprague-Dawley, rat, in vivo, po, 25 mg base/kg/day; read-out: maternal Cmax
Measured property: Cmax

Molecule	Measured property	Measured value
CC(C)NC(=O)COc1cccc(-c2nc(Nc3ccc4[nH]ncc4c3)c3ccccc3n2)c1 [belumosudil]	Cmax	1800 ng/mL

###

Method summary: Toxicokinetic analysis in rat plasma (Example 5)
Type: in vivo
Recorded conditions: male, Sprague-Dawley, rat, plasma, po, 150 mg/kg/day

Molecule	Cmax
CC(C)NC(=O)COc1cccc(-c2nc(Nc3ccc4[nH]ncc4c3)c3ccccc3n2)c1 [belumosudil]	10100 ng/mL
